Measured values drawn from paper PMC9908614 for this set.

Target: EphH (Rv3338) (Mycobacterium tuberculosis, UniProt O53388)
Sequence (O53388 whole entry): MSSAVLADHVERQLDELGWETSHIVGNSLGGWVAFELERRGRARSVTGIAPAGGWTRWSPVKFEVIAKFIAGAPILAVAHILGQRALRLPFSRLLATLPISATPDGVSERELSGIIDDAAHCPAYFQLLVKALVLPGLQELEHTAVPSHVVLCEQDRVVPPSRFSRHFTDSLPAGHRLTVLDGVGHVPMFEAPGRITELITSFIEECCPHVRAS
readout.type: pIC50
Quick note: pIC50 values are minus log10 of concentrations in mol/L.

INPUT: Which pIC50 is listed for O=C(O)CCCCCCCCCCCNC(=O)NC12CC3CC(CC(C3)C1)C2 [AUDA] ?
OUTPUT: 8.03
